- assay.remarks: BSK_3C_VCAM1: BioMAP Diversity Plus: 3C Assay for Vascular cell adhesion molecule 1 (VCAM1) Biomarker Activity (AID 2282999)
- condition.context: BioMAP 3C HUVEC, VCAM1 ELISA, cytokine-stimulated; actives raise or lower the signal
The source made the active and inactive calls. How the source made its calls: active means hit-call score of the fitted dose curve at least 0.9, where 1 is the maximum; inactive means score below 0.9.
Entry note: the call must match one of active, inactive

- CN(C)CCO: inactive
- C[C@]12CCC(=O)C=C1CC[C@@H]1[C@@H]2CC[C@]2(C)C(=O)CC[C@@H]12: inactive
- CCCCCCCCOC(=O)c1ccccc1C(=O)OCCCCCCCC: inactive
- c1cc2ccc3cccc4ccc(c1)c2c34: inactive

Request: Which outcome did this test record for the compound CCOC(=O)C(O)(c1ccc(Cl)cc1)c1ccc(Cl)cc1 ?
Response: active

Request: Which outcome did this test record for the compound O=C(N[C@H]1CN2CCC1CC2)c1cc2ccoc2cn1 ?
Response: inactive

// data source = PubChem BioAssay (EPA / NIEHS)
